- tested target: Plasminogen (Homo sapiens)
- Sequence (P00747 97-580 limits assumed): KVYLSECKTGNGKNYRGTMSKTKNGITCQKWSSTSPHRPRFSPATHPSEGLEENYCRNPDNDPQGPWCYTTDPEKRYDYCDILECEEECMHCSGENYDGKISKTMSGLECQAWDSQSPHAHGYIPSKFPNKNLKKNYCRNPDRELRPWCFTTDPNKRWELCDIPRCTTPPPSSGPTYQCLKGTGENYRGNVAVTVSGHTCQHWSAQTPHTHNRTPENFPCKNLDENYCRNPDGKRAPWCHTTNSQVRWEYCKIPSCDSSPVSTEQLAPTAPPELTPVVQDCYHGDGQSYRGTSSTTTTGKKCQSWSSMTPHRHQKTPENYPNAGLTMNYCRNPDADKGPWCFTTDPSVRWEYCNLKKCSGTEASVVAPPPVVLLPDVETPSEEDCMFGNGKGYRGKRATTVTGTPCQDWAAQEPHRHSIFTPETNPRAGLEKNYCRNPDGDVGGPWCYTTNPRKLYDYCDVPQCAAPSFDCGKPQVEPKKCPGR
- Sequence (P00747 581-810 limits assumed): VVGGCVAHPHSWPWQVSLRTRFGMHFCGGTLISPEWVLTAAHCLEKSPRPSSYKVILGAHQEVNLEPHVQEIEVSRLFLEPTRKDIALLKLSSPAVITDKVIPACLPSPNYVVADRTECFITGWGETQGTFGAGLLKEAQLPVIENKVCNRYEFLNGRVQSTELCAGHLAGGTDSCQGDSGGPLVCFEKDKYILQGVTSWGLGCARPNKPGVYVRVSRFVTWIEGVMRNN
measured endpoint: Ki

INPUT: Param item = Nc1ncnc2cc(CN3CCN(Cc4nc5ccc(Cl)cc5[nH]4)CC3=O)ccc12 ; retrieve measured Ki.
OUTPUT: > 7.3 µM

* * *

- tested target: Serine protease 1 (Homo sapiens)
- Sequence (P07477 whole entry): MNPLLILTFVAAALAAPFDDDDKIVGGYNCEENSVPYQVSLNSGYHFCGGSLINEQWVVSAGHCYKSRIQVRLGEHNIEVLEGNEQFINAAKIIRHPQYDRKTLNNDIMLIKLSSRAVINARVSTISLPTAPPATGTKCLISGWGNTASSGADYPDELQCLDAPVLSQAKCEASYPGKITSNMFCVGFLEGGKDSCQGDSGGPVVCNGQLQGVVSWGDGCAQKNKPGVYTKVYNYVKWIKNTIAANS
pKi: −log10 of the molar value.
measured endpoint: pKi

1. Nc1ncnc2cc(CN3CCN(Cc4cc5cc(Cl)ccc5[nH]4)CC3=O)ccc12 : < 5.54

INPUT: Param item = Nc1ncnc2cc(CN3CCN(Cc4nc5ccc(Cl)cc5[nH]4)CC3=O)ccc12 ; retrieve measured pKi.
OUTPUT: < 5.54

* * *

Reported pKi values for the following compounds.
- tested target: Coagulation factor X (Homo sapiens, UniProt P00742)
- Sequence (P00742 41-179 limits assumed): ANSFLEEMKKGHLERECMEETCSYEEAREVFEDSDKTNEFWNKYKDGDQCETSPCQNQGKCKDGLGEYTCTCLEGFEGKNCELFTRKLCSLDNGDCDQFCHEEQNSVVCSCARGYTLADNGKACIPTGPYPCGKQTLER
- Sequence (P00742 235-488 limits assumed): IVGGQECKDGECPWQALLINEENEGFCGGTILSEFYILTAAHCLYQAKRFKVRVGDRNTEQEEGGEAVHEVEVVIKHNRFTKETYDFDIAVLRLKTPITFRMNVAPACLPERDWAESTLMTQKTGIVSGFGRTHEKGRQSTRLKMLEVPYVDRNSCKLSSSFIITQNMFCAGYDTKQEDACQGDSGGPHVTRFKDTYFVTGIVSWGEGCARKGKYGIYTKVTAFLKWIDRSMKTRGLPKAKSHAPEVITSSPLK
- test description: Inhibition of Coagulation factor Xa
pKi field: float, defined as -log10 of concentration (mol/L).

Please review the entries below; each comes with its answer.
1. Nc1ncnc2cc(CN3CCN(Cc4cc5ccc(Cl)cc5[nH]4)CC3=O)ccc12 : 6.41
2. Cc1ccc2nc(CN3CCN(Cc4ccc5c(N)ncnc5c4)C(=O)C3)[nH]c2c1 : 6.92
3. Nc1ncnc2cc(CN3CCN(Cc4cc5cc(Cl)ccc5[nH]4)CC3=O)ccc12 : 7.62

INPUT: State its pKi on Coagulation factor X (Homo sapiens, UniProt P00742): Cn1c(CN2CCN(Cc3ccc4c(N)ncnc4c3)C(=O)C2)nc2ccc(Cl)cc21
OUTPUT: 6.54
